# Kb annotations
- experimentalSystem: guinea pig left atria (Cavia porcellus)
- Construct: guinea pig paced left atria; from tissue; host or cells: isolated guinea pig left atria
- Sequence (H0VRN8 1-466): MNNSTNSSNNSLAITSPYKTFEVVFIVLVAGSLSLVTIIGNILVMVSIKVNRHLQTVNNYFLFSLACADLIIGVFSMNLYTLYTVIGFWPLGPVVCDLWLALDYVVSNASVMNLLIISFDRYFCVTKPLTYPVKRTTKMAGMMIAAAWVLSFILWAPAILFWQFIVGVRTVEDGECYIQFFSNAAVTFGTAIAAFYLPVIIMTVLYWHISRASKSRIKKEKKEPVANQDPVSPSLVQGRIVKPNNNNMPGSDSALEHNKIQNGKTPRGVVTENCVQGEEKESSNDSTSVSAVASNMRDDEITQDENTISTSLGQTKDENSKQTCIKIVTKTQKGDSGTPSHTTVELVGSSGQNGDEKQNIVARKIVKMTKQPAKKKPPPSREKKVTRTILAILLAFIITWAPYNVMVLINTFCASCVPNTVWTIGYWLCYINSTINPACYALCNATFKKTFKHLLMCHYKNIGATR
- testSummary: Functional studies in vitro, guinea pig paced left atria, bethanechol negative inotropic effect
- Description: Antimuscarinic activity and selectivity were examined in in vitro by receptor binding studies in two tissues endowed with M1 and M2 muscarinic receptors (cerebral cortex, heart), in functional studies in isolated guinea pig ileum and guinea pig paced left atria and in in vivo functional tests on bronchi and heart of the anaesthetized guinea pig. […]
Report as a plain number; the unit µM is understood.

// worked examples, Kb included
CN1[C@@H]2CC[C@H]1C[C@@H](OC(=O)N1Cc3ccccc3NC1=O)C2 [Compound 16] : 0.122
CN1[C@@H]2CC[C@H]1C[C@@H](OC(=O)N1Cc3cc(F)ccc3NC1=O)C2 [Compound 26] : 0.25
CN1C2CCC1CC(OC(=O)N1C(=O)Nc3ccccc3C1O)C2 (stereo not shown) [Compound 49] : 0.075

Okay, now this molecule:
Record summary for CN1[C@@H]2CC[C@H]1C[C@@H](OC(=O)N1Cc3ccc(Cl)cc3NC1=O)C2 [Compound 25] : reported Kb = 2.2

====

- experimentalSystem: Muscarinic M1 (Rattus norvegicus)
- Construct: displacement of ^3 H-pirenzepine from cerebral cortex homogenate; from tissue; host or cells: rat cerebral cortex homogenate
- Sequence (P08482 whole entry): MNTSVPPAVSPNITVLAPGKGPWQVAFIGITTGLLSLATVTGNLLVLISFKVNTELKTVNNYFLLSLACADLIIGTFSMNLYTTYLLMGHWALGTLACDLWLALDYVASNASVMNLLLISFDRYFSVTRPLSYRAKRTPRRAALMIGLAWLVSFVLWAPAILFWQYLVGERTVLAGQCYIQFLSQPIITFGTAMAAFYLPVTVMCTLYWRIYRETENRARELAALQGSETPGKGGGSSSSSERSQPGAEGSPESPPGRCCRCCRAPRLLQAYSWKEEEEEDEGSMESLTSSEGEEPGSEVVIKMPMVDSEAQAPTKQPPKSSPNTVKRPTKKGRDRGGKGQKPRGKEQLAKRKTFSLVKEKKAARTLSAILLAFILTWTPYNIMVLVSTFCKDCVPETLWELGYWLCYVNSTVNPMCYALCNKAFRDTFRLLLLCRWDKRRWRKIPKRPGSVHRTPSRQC
- testSummary: Displacement of 3H-pirenzepine from cerebral cortex homogenate (receptor binding studies in vitro)
outcomeMeasure: Kd (nM)
Report as a plain number; the unit nM is understood.

CN1[C@@H]2CC[C@H]1C[C@@H](OC(=O)N1Cc3cc(F)ccc3NC1=O)C2 : 3

Sample CN1C2CCC1CC(OC(=O)N1C(=O)Nc3ccccc3C1O)C2 (stereo not shown) , system: Muscarinic M1 (Rattus norvegicus). Its Kd is 2

Sample "CN1[C@@H]2CC[C@H]1C[C@@H](OC(=O)N1Cc3ccc(Cl)cc3NC1=O)C2" , system: Muscarinic M1 (Rattus norvegicus). Its Kd is 7

Sample "CN1[C@@H]2CC[C@H]1C[C@@H](NC(=O)N1Cc3ccccc3NC1=O)C2" , system: Muscarinic M1 (Rattus norvegicus). Its Kd is 1
